polymerase ribozyme fitness (log ratio) for assorted variants
B1: TPR t1 (parent)
chain: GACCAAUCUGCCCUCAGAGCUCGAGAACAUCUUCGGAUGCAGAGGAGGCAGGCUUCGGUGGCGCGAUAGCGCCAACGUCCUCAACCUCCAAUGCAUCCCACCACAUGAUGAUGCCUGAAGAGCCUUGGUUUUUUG

Variants of: B1
Experiment: polymerase ribozyme fitness, log enrichment relative to wild type (log ratio); higher = more active; in vitro selection for triplet polymerase activity
No unit in the answer, only the number.

Examples with their reported polymerase ribozyme fitness (log ratio) follow.
- Mutant name: "U92C G128C"
  polymerase ribozyme fitness (log ratio): -3.41
- Mutant name: "C79U A118C"
  polymerase ribozyme fitness (log ratio): -2.46
- Mutant name: "C22U G69C C82A U112C A121C U132A"
  polymerase ribozyme fitness (log ratio): -3.46
- Mutant name: "C22A C85U"
  polymerase ribozyme fitness (log ratio): -4.92
- Mutant name: "C62U U132C"
  polymerase ribozyme fitness (log ratio): -0.257

Which polymerase ribozyme fitness (log ratio) value belongs to C4G C8G A26G G71A G120U ? -1.19

Entry U59A C124U please 1.47

These entries and their values trace back to the RNAGym collection of RNA variant scans (doi:10.1073/pnas.2313332121).
